target: Acetylcholinesterase (Homo sapiens, UniProt P22303); assay: Inhibition of recombinant human AChE expressed in HEK293 cells using acetylthiocholine iodide as substrate preincubated for 5 mins before substrate addition measured after 10 mins by Ellman's method
Sequence (P22303 whole entry): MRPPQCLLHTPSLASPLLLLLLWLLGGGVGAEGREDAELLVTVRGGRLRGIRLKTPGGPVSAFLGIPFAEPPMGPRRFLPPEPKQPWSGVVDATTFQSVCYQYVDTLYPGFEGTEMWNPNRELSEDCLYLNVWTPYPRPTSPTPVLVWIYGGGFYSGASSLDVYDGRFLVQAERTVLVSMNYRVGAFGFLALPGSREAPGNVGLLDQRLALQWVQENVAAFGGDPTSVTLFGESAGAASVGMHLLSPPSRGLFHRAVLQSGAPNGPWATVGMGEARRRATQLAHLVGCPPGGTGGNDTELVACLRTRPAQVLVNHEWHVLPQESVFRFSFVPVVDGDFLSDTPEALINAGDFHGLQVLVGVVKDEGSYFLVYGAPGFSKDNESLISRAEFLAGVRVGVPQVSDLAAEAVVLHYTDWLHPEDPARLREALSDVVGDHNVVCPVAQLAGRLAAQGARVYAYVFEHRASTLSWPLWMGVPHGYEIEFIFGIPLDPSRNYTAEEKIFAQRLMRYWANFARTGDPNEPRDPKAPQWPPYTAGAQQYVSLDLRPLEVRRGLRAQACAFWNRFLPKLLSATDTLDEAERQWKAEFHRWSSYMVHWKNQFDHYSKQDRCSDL
Listing of recorded IC50 by entry.
Give just the number in µM; leave the unit off.

Study these solved cases before continuing.
[
  {
    "test-smiles": "O=C(Nc1cc2ccccc2oc1=O)c1ccc(Cl)c(Cl)c1",
    "IC50, µM": 15
  },
  {
    "test-smiles": "O=C(Nc1cc2ccccc2oc1=O)c1ccc(Cl)cc1",
    "IC50, µM": 18.7
  },
  {
    "test-smiles": "O=C(Nc1cc2ccccc2oc1=O)c1ccc([N+](=O)[O-])cc1",
    "IC50, µM": 12.9
  },
  {
    "test-smiles": "Cc1ccc(C(=O)Nc2cc3ccccc3oc2=O)cc1",
    "IC50, µM": 18.4
  },
  {
    "test-smiles": "Cc1ccc(C(=O)Nc2cc3cc(C)ccc3oc2=O)cc1",
    "IC50, µM": 41.4
  }
]

Please examine the following record next.
## Input Param item = COc1ccc(C(=O)Nc2cc3ccccc3oc2=O)cc1 ; retrieve measured IC50.
## Output 69.5
